Recorded values, source patent US20230295310A1.

Here, each record is paired with measured Binding (FOI) data.
system.tested: T1, human CD3 expressed on cells (Jurkat cells; human primary T cells) (human, UniProt P07766 23-207; P04234 22-171; P09693 23-182)
T1 construct: whole, on cells
method.description: flow cytometry, 25 nM, human primary T cells
Field: numeric (FOI). Do not append units.

| binder | result.units | Binding (FOI) |
| --- | --- | --- |
| mAb 220 (antibody, V domains shown, VH/VL only) VH: QEQLVESGGGVVQPGGSLRLSCVASGFTFSGYGMHWVRQAPGKGLEWVAIIWYNGRKTYYAESVKGRFTISRDNSKNTLSLQMNSLRVEDTAVYYCTTGKGYNWFDPWGQGTLVTVSS VL: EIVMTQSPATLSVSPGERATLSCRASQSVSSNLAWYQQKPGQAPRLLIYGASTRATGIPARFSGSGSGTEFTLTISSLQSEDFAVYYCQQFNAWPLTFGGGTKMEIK | FOI | 243 |

Measured Binding (FOI), mAb 203 (antibody, V domains shown, VH/VL only) VH: QVQLVESGGGVVQPGGSLRLSCAASGFTFRGYGMHWVRQAPGKGLEWVAIIYYNGRKTYYAESVKGRFTISRDNSKNTLSLQMNSLRVEDTAVYYCTAGQGYNWFDPWGQGTLVTVSS VL: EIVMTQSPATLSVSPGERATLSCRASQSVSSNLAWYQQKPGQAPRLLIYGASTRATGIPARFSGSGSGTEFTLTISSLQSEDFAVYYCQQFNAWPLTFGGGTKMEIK : 285

Value of measured Binding (FOI) for the entry mAb 192 (antibody, V domains shown, VH/VL only) VH: QVQLVESGGGVVQPGRSLRLSCAASGFTFSGYGMHWVRQAPGKGLEWVAIIYYNGKKEYYADSVKGRFTISRDNSKNTLYLQMNSLRAEDTAVYYCTRGEGYNWFDPWGQGILVTVSS VL: EIVMTQSPATLSVSPGERATLSCRASQSVSSNLAWYQQKPGQAPRLLIYGASTRATGIPARFSGSGSGTEFTLTISSLQSEDFAVYYCKQYKNWPLTFGGGTKVEIK : 223
